system: CtBP (Homo sapiens)
Construct: 6xHis
test_name: Fluorescence polarization Kd determination of FITC-peptide with CtBP
Format: binding
condition_description: affinity to CtBP1, Example 12; read-out: Kd
value_type: pKd
Convention used: pKd is expressed as -log10 of the molar concentration.

Data request, read-out pKd, for EQTVPVDLSVARPR [SEQ ID NO:132]
5.66

---

Field: IC50. Provide a value for each of the molecules that follow.
system: CtBP-E1A interaction (Homo sapiens)
test_name: CtBP-E1A interaction inhibition (AlphaScreen / fluorescence polarization competition assay)
Assay type: binding
condition_description: IC50 value, Table 3; inhibition of CtBP/E1A protein interaction
Where a SMILES comes first, the peptide text is derived from it.
Give your result in µM as a bare value.

Data request, read-out IC50, for CC(C)C[C@H](NC(=O)[C@H](CC(=O)O)NC(=O)[C@H](CC(C)C)NC(=O)[C@@H]1CCCN1C(=O)[C@H](CCC(N)=O)NC(=O)CNC(=O)[C@@H]1CCCN1C(=O)[C@@H](N)CCC(=O)O)C(=O)N[C@@H](CO)C(=O)N[C@@H](CS)C(=O)N[C@@H](CCC(N)=O)C(=O)N[C@@H](CCCNC(=N)N)C(=O)N1CCC[C@H]1C(=O)N[C@@H](CCCNC(=N)N)C(=O)O [Peptide K239Q] (H-EPGQPLDLSCQRPR-OH; N-terminus and C-terminus assumed)
12

Data request, read-out IC50, for CC(C)C[C@H](NC(=O)[C@H](CC(=O)O)NC(=O)[C@H](CC(C)C)NC(=O)[C@@H]1CCCN1C(=O)[C@H](CCC(N)=O)NC(=O)CNC(=O)[C@@H]1CCCN1C(=O)[C@@H](N)CCC(=O)O)C(=O)N[C@@H](CO)C(=O)N[C@@H](CS)C(=O)N[C@@H](C)C(=O)N[C@@H](CCCNC(=N)N)C(=O)N1CCC[C@H]1C(=O)N[C@@H](CCCNC(=N)N)C(=O)O [Peptide K239A] (H-EPGQPLDLSCARPR-OH; N-terminus and C-terminus assumed)
21.9

Data request, read-out IC50, for CC(C)C[C@H](NC(=O)[C@H](CC(=O)O)NC(=O)[C@H](CC(C)C)NC(=O)[C@@H]1CCCN1C(=O)[C@H](CCC(N)=O)NC(=O)CNC(=O)[C@@H]1CCCN1C(=O)[C@@H](N)CCC(=O)O)C(=O)N[C@@H](CO)C(=O)N[C@@H](CS)C(=O)N[C@@H](CCCCN)C(=O)N[C@@H](CCCNC(=N)N)C(=O)N1CCC[C@H]1C(=O)N[C@@H](CCCNC(=N)N)C(=O)O [Wild-type, reference compound] (H-EPGQPLDLSCKRPR-OH; N-terminus and C-terminus assumed)
7.26

Data request, read-out IC50, for CC(=O)NCCCC[C@H](NC(=O)[C@H](CS)NC(=O)[C@H](CO)NC(=O)[C@H](CC(C)C)NC(=O)[C@H](CC(=O)O)NC(=O)[C@H](CC(C)C)NC(=O)[C@@H]1CCCN1C(=O)[C@H](CCC(N)=O)NC(=O)CNC(=O)[C@@H]1CCCN1C(=O)[C@@H](N)CCC(=O)O)C(=O)N[C@@H](CCCNC(=N)N)C(=O)N1CCC[C@H]1C(=O)N[C@@H](CCCNC(=N)N)C(=O)O [K239-Acetylated] (H-EPGQPLDLSCK(Ac)RPR-OH; N-terminus and C-terminus assumed)
26.6
